experimental target: acidic fibroblast growth factor (aFGF) (UniProt P05230 16-155, limits assumed)
Sequence (P05230 16-155 limits assumed): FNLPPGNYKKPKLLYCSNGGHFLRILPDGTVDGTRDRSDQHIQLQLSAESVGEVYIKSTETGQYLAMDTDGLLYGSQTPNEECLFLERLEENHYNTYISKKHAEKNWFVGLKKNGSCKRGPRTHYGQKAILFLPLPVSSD
procedure summary: microplate thermal shift assay, turbidity signal; Kd at 298 K estimated with equation (3)
measured endpoint: pKd
Give bare numbers, as −log10 of the molar value.

In: Look up pKd for this binder: "EEEEEEEE"
Out: 5.52
